System: E. faecalis VRE 53
assay.procedure: MIC, broth microdilution, vancomycin-resistant E. faecalis VRE 53 (VanA)
Type: cell-based, Enterococcus faecalis
reported.conditions: VRE 53; ratio of MIC of vancomycin and MIC of analogue
outcome.measure: MIC-fold improvement vs. vancomycin

// worked examples, MIC-fold improvement vs. vancomycin included
| compound | measurement.target | MIC-fold improvement vs. vancomycin |
| --- | --- | --- |
| CN[C@H](CC(C)C)C(=O)N[C@H]1C(=O)N[C@@H](CC(N)=O)C(=O)N[C@H]2C(=O)N[C@H]3C(=O)N[C@H](C(=O)N[C@H](C(=O)NCC(=O)Nc4cc(C)cc(C)c4)c4cc(O)cc(O)c4-c4cc3ccc4O)[C@H](O)c3ccc(c(Cl)c3)Oc3cc2cc(c3O[C@@H]2O[C@H](CO)[C@@H](O)[C@H](O)[C@H]2O[C@H]2C[C@](C)(N)[C@H](O)[C@H](C)O2)Oc2ccc(cc2Cl)[C@H]1O | E. faecalis VRE 53 | 32 |
| CN[C@H](CC(C)C)C(=O)N[C@H]1C(=O)N[C@@H](CC(N)=O)C(=O)N[C@H]2C(=O)N[C@H]3C(=O)N[C@H](C(=O)N[C@H](C(=O)NCC(=O)Nc4cc(C)ccc4O)c4cc(O)cc(O)c4-c4cc3ccc4O)[C@H](O)c3ccc(c(Cl)c3)Oc3cc2cc(c3O[C@@H]2O[C@H](CO)[C@@H](O)[C@H](O)[C@H]2O[C@H]2C[C@](C)(N)[C@H](O)[C@H](C)O2)Oc2ccc(cc2Cl)[C@H]1O | E. faecalis VRE 53 | 16 |
| CNC(CC(C)C)C(=O)NC1C(=O)NC(CC(N)=O)C(=O)NC2C(=O)NC3C(=O)NC(C(=O)NC(C(=O)NCC(=O)Nc4ccc(-c5cn(-c6ccc(C)cc6)nn5)cc4)c4cc(O)cc(O)c4-c4cc3ccc4O)C(O)c3ccc(c(Cl)c3)Oc3cc2cc(c3OC2OC(CO)C(O)C(O)C2OC2CC(C)(N)C(O)C(C)O2)Oc2ccc(cc2Cl)C1O (stereo not drawn) | E. faecalis VRE 53 | 128 |

Challenge: Given the compound CNC(CC(C)C)C(=O)NC1C(=O)NC(CC(N)=O)C(=O)NC2C(=O)NC3C(=O)NC(C(=O)NC(C(=O)NCCNC(=O)C=Cc4ccc(NS(=O)(=O)c5ccc(Cl)cc5)cc4)c4cc(O)cc(O)c4-c4cc3ccc4O)C(O)c3ccc(c(Cl)c3)Oc3cc2cc(c3OC2OC(CO)C(O)C(O)C2OC2CC(C)(N)C(O)C(C)O2)Oc2ccc(cc2Cl)C1O (stereo not drawn) , write its reported MIC-fold improvement vs. vancomycin.
Response given: 16

Challenge: Given the compound CNC(CC(C)C)C(=O)NC1C(=O)NC(CC(N)=O)C(=O)NC2C(=O)NC3C(=O)NC(C(=O)NC(C(=O)NCCCNC(=O)c4ccc5cc(NS(=O)(=O)c6ccc(C)cc6)ccc5c4)c4cc(O)cc(O)c4-c4cc3ccc4O)C(O)c3ccc(c(Cl)c3)Oc3cc2cc(c3OC2OC(CO)C(O)C(O)C2OC2CC(C)(N)C(O)C(C)O2)Oc2ccc(cc2Cl)C1O (stereo not drawn) , write its reported MIC-fold improvement vs. vancomycin.
Response given: 16

Challenge: Given the compound CN[C@H](CC(C)C)C(=O)N[C@H]1C(=O)N[C@@H](CC(N)=O)C(=O)N[C@H]2C(=O)N[C@H]3C(=O)N[C@H](C(=O)N[C@H](C(=O)NCC(=O)Nc4ccc(Nc5ccccc5)cc4)c4cc(O)cc(O)c4-c4cc3ccc4O)[C@H](O)c3ccc(c(Cl)c3)Oc3cc2cc(c3O[C@@H]2O[C@H](CO)[C@@H](O)[C@H](O)[C@H]2O[C@H]2C[C@](C)(N)[C@H](O)[C@H](C)O2)Oc2ccc(cc2Cl)[C@H]1O , write its reported MIC-fold improvement vs. vancomycin.
Response given: 16

----------
Test system: S. aureus VISA/HIP5827
assay.procedure: MIC, broth microdilution, vancomycin-intermediate S. aureus VISA HIP5827
Assay type: cell-based, Staphylococcus aureus
reported.conditions: Staphylococcus aureus VISA/HIP5827; read-out: MIC
outcome.measure: MIC
Reply with a number, then the unit it belongs to.

| chemical.structure | MIC |
| --- | --- |
| CN[C@H](CC(C)C)C(=O)N[C@H]1C(=O)N[C@@H](CC(N)=O)C(=O)N[C@H]2C(=O)N[C@H]3C(=O)N[C@H](C(=O)N[C@H](C(=O)NCC(=O)Nc4ccc5c(c4)Cc4ccccc4-5)c4cc(O)cc(O)c4-c4cc3ccc4O)[C@H](O)c3ccc(c(Cl)c3)Oc3cc2cc(c3O[C@@H]2O[C@H](CO)[C@@H](O)[C@H](O)[C@H]2O[C@H]2C[C@](C)(N)[C@H](O)[C@H](C)O2)Oc2ccc(cc2Cl)[C@H]1O | 0.78 µM |
| CCCCc1ccc(NC(=O)CNC(=O)[C@H]2NC(=O)[C@H]3NC(=O)[C@H](NC(=O)[C@@H]4NC(=O)[C@H](CC(N)=O)NC(=O)[C@H](NC(=O)[C@@H](CC(C)C)NC)[C@H](O)c5ccc(c(Cl)c5)Oc5cc4cc(c5O[C@@H]4O[C@H](CO)[C@@H](O)[C@H](O)[C@H]4O[C@H]4C[C@](C)(N)[C@H](O)[C@H](C)O4)Oc4ccc(cc4Cl)[C@H]3O)c3ccc(O)c(c3)-c3c(O)cc(O)cc32)cc1 | 0.39 µM |

Now for a further molecule.
Challenge: Given the molecule CN[C@H](CC(C)C)C(=O)N[C@H]1C(=O)N[C@@H](CC(N)=O)C(=O)N[C@H]2C(=O)N[C@H]3C(=O)N[C@H](C(=O)N[C@H](C(=O)NCC(=O)Nc4ccc(OC)c(OC)c4)c4cc(O)cc(O)c4-c4cc3ccc4O)[C@H](O)c3ccc(c(Cl)c3)Oc3cc2cc(c3O[C@@H]2O[C@H](CO)[C@@H](O)[C@H](O)[C@H]2O[C@H]2C[C@](C)(N)[C@H](O)[C@H](C)O2)Oc2ccc(cc2Cl)[C@H]1O , write its reported MIC.
Response given: 0.78 µM

----------
Listing of entries alongside the reported IC50.
Tested on: human cervix carcinoma (HeLa) cells
assay.procedure: Cytostatic activity, HeLa cell proliferation
Assay type: cell-based
reported.conditions: mean ± SD of three experiments; highest concentration tested 250 µM; 4 days; read-out: Toxicity (IC50) HeLa
Return type: number; implicit unit µM.

| molecule | unit | IC50 |
| --- | --- | --- |
| CCCCCn1cc(-c2ccc(NC(=O)CNC(=O)C3NC(=O)C4NC(=O)C(NC(=O)C5NC(=O)C(CC(N)=O)NC(=O)C(NC(=O)C(CC(C)C)NC)C(O)c6ccc(c(Cl)c6)Oc6cc5cc(c6OC5OC(CO)C(O)C(O)C5OC5CC(C)(N)C(O)C(C)O5)Oc5ccc(cc5Cl)C4O)c4ccc(O)c(c4)-c4c(O)cc(O)cc43)cc2)nn1 (stereo not drawn) [Vanc-91] | µM | 147 |
| CN[C@H](CC(C)C)C(=O)N[C@H]1C(=O)N[C@@H](CC(N)=O)C(=O)N[C@H]2C(=O)N[C@H]3C(=O)N[C@H](C(=O)N[C@H](C(=O)NCCNC(=O)CC(c4ccccc4)c4ccccc4)c4cc(O)cc(O)c4-c4cc3ccc4O)[C@H](O)c3ccc(c(Cl)c3)Oc3cc2cc(c3O[C@@H]2O[C@H](CO)[C@@H](O)[C@H](O)[C@H]2O[C@H]2C[C@](C)(N)[C@H](O)[C@H](C)O2)Oc2ccc(cc2Cl)[C@H]1O [Vanc-47] | µM | 106 |

Challenge: Given the molecule CN[C@H](CC(C)C)C(=O)N[C@H]1C(=O)N[C@@H](CC(N)=O)C(=O)N[C@H]2C(=O)N[C@H]3C(=O)N[C@H](C(=O)N[C@H](C(=O)NCC(=O)Nc4ccc(-c5cn(-c6ccccc6)nn5)cc4)c4cc(O)cc(O)c4-c4cc3ccc4O)[C@H](O)c3ccc(c(Cl)c3)Oc3cc2cc(c3O[C@@H]2O[C@H](CO)[C@@H](O)[C@H](O)[C@H]2O[C@H]2C[C@](C)(N)[C@H](O)[C@H](C)O2)Oc2ccc(cc2Cl)[C@H]1O [Vanc-77] , write its reported IC50.
Response given: 58

----------
Test system: E. faecalis VRE 6
assay.procedure: MIC, broth microdilution, vancomycin-resistant E. faecalis VRE 6 (VanA)
Assay type: cell-based, Enterococcus faecalis
reported.conditions: Enterococcus faecalis VRE 6 (vancomycin-resistant); read-out: MIC
Listing of entries alongside the reported MIC.
Return type: number; implicit unit µM.

| compound | MIC / µM |
| --- | --- |
| CNC(CC(C)C)C(=O)NC1C(=O)NC(CC(N)=O)C(=O)NC2C(=O)NC3C(=O)NC(C(=O)NC(C(=O)NCC(=O)Nc4ccc(C#CC5CCCC5)cc4)c4cc(O)cc(O)c4-c4cc3ccc4O)C(O)c3ccc(c(Cl)c3)Oc3cc2cc(c3OC2OC(CO)C(O)C(O)C2OC2CC(C)(N)C(O)C(C)O2)Oc2ccc(cc2Cl)C1O (stereo not drawn) | 3.13 |

Challenge: Given the compound CCCCC#Cc1ccc(NC(=O)CNC(=O)[C@H]2NC(=O)[C@H]3NC(=O)[C@H](NC(=O)[C@@H]4NC(=O)[C@H](CC(N)=O)NC(=O)[C@H](NC(=O)[C@@H](CC(C)C)NC)[C@H](O)c5ccc(c(Cl)c5)Oc5cc4cc(c5O[C@@H]4O[C@H](CO)[C@@H](O)[C@H](O)[C@H]4O[C@H]4C[C@](C)(N)[C@H](O)[C@H](C)O4)Oc4ccc(cc4Cl)[C@H]3O)c3ccc(O)c(c3)-c3c(O)cc(O)cc32)cc1 , write its reported MIC.
Response given: 1.56

Challenge: Given the compound CN[C@H](CC(C)C)C(=O)N[C@H]1C(=O)N[C@@H](CC(N)=O)C(=O)N[C@H]2C(=O)N[C@H]3C(=O)N[C@H](C(=O)N[C@H](C(=O)NCC(=O)Nc4ccc(C)cc4)c4cc(O)cc(O)c4-c4cc3ccc4O)[C@H](O)c3ccc(c(Cl)c3)Oc3cc2cc(c3O[C@@H]2O[C@H](CO)[C@@H](O)[C@H](O)[C@H]2O[C@H]2C[C@](C)(N)[C@H](O)[C@H](C)O2)Oc2ccc(cc2Cl)[C@H]1O , write its reported MIC.
Response given: 3.13

Challenge: Given the compound CN(C)c1cc(NC(=O)CNC(C)(C)C)c(O)c2c1C[C@H]1C[C@H]3[C@H](N(C)C)C(O)=C(C(N)=O)C(=O)[C@@]3(O)C(O)=C1C2=O [Tigecycline, reference compound] , write its reported MIC.
Response given: 3.13

Challenge: Given the compound C#Cc1ccc2cc(C(=O)NCCCNC(=O)[C@H]3NC(=O)[C@H]4NC(=O)[C@H](NC(=O)[C@@H]5NC(=O)[C@H](CC(N)=O)NC(=O)[C@H](NC(=O)[C@@H](CC(C)C)NC)[C@H](O)c6ccc(c(Cl)c6)Oc6cc5cc(c6O[C@@H]5O[C@H](CO)[C@@H](O)[C@H](O)[C@H]5O[C@H]5C[C@](C)(N)[C@H](O)[C@H](C)O5)Oc5ccc(cc5Cl)[C@H]4O)c4ccc(O)c(c4)-c4c(O)cc(O)cc43)ccc2c1 , write its reported MIC.
Response given: 3.13

Challenge: Given the compound CNC(CC(C)C)C(=O)NC1C(=O)NC(CC(N)=O)C(=O)NC2C(=O)NC3C(=O)NC(C(=O)NC(C(=O)NCCCNC(=O)c4ccc(C(C)(C)C)cc4)c4cc(O)cc(O)c4-c4cc3ccc4O)C(O)c3ccc(c(Cl)c3)Oc3cc2cc(c3OC2OC(CO)C(O)C(O)C2OC2CC(C)(N)C(O)C(C)O2)Oc2ccc(cc2Cl)C1O (stereo not drawn) , write its reported MIC.
Response given: 6.25
